assay: Solubility testing of propynyl compounds in solvents; assay type: physicochemical; conditions: solvent Butanediol Anhydrous
readout: Solubility in Butanediol Anhydrous

**Query** # lookup: Solubility in Butanediol Anhydrous of O=C(C#CI)c1ccc(C(F)(F)F)cc1
**Result** +

**Query** What do we get for OC(C#CI)c1cccs1 (centres unmarked) ?
**Result** +

**Query** What do we get for Cc1ccc(C(Cn2ccnc2)OCC#CI)cc1 (centres unmarked) ?
**Result** −

**Query** What do we get for C#CC(=O)c1ccc(C#N)cc1 ?
**Result** +

More entries:
**Query** # lookup: Solubility in Butanediol Anhydrous of O=c1c(Cl)cn(CC#CI)c(=O)n1CC#CI
**Result** −

Recorded values, source patent US20030039580A1.
